Ref: patent US20250186614A1

protocol details: Example 4: dose response of FKBP constructs 160-255, Ec50, Ec90 and fold change (raw and normalized to mCherry)
Assay type: cell-based
protocol conditions: FKBP constructs 160-255; not normalized; read-out: EC90
The molecules listed here are annotated with their EC90.
// return numeric value only (unit: µM, not printed)

| molecule | EC90 / µM |
| --- | --- |
| FKBP-199: FKBP13 DRD-AcGFP construct of Table 10 (protein, Description of sequence: Construct Name: FKBP-199; Mutation(s): Q72R Q84E A117W V85R DRD E98L) HCPIKSRKGDVLHMHYTGKLEDGTEFDSSLPRNQPFVFSLGTGERIKGWDQGLLGMCLGEKRKLVIPSELGYGERGWPPKIPGGATLVFEVELLKIER | 0.0717 |

Let us move to another entry and its EC90.
*Q* Looking for the measured EC90 of FKBP-217 (protein, Description of sequence: Construct Name: FKBP-217; Mutation(s): Q72R Q84E A117W V85R DRD M54A E61Y K101W K135Y) HCPIKSRKGDVLHAHYTGKLYDGTEFDSSLPRNQPFVFSLGTGERIKGWDQGLLGMCEGEWRKLVIPSELGYGERGWPPKIPGGATLVFEVELLYIER , can you help?
*A* 16.1
